Assay target: human cathepsin B (Homo sapiens, UniProt P07858)
Construct: purchased Calbiochem, Darmstadt, Germany
Measurement protocol: Cathepsin B inhibition assay (chromogenic substrate Cbz-Arg-Arg-pNA)
Type: biochemical
Condition context: non-linear regression of initial rates vi versus inhibitor concentration; read-out: Ki ± SE
Readout name: pKi
pKi is defined as minus the log10 of a concentration measured in mol/L.

stdin: Find the recorded pKi belonging to O=C(NC(CC1CCCCC1)C(=O)NC(Cc1ccccc1)C(=O)O)Oc1ccc(Cl)cc1 (stereo not shown) [Compound 7] and report it.
stdout: 5.00

====

Consider the following compounds; for each one, report its remaining activity at 20 µM.
Assay target: human cathepsin L (Homo sapiens, UniProt P07711)
Construct: purchased Enzo Life Sciences, Lörrach, Germany
Sequence (P07711 114-333): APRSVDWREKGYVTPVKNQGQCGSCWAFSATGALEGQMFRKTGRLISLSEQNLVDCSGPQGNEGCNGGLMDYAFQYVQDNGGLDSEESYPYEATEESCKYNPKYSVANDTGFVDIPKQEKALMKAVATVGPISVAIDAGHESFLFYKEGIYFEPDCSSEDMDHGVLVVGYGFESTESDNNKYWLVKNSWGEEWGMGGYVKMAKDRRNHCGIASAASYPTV
Measurement protocol: Cathepsin L inhibition assay (Cbz-Phe-Arg-pNA)
Format: biochemical
Condition context: 20 µM inhibitor, 60 min; read-out: Residual activity @ 20 µM (%) Cat L
Response body: numeric value in %, unit text excluded.

stdin: Find the recorded remaining activity at 20 µM belonging to CC(C)CC(CNC(=O)Oc1ccc(Cl)cc1)C(=O)N[C@H](Cc1ccccc1)C(=O)O (some centres unmarked) and report it.
stdout: 90

stdin: Find the recorded remaining activity at 20 µM belonging to "CC(C)C[C@H](NC(=O)Oc1ccc(Cl)cc1)C(=O)N1CCC[C@H]1C(=O)O" and report it.
stdout: 97

stdin: Find the recorded remaining activity at 20 µM belonging to COC(=O)C(Cc1ccccc1)NC(=O)C(CC(C)C)NC(=O)Oc1ccc(Cl)cc1 (centres unmarked) and report it.
stdout: 85

stdin: Find the recorded remaining activity at 20 µM belonging to "CC(C)C[C@H](NC(=O)Nc1ccc(Cl)cc1)C(=O)N1CCC[C@H]1C(=O)O" and report it.
stdout: 96

stdin: Find the recorded remaining activity at 20 µM belonging to "CC(C)C[C@H](NC(=O)Oc1ccc(Cl)cc1)C(=O)N[C@@H](Cc1ccccc1)C(=O)O" and report it.
stdout: 92

stdin: Find the recorded remaining activity at 20 µM belonging to CC(C)CC(NC(=O)Oc1ccc(NC(=O)C(c2ccccc2)c2ccccc2)c(Br)c1)C(=O)N1CCCC1C(=O)O (centres unmarked) and report it.
stdout: 81

stdin: Find the recorded remaining activity at 20 µM belonging to CC(C)CC(OC(=O)Nc1ccc(Cl)cc1)C(=O)N[C@@H](Cc1ccccc1)C(=O)O (some centres unmarked) and report it.
stdout: 95

stdin: Find the recorded remaining activity at 20 µM belonging to "CC(C)C[C@H](NC(=O)Oc1ccc(Cl)cc1)C(=O)N1CCCC[C@H]1C(=O)O" and report it.
stdout: 91

====

Consider the following molecules; for each one, report its remaining activity at 20 µM.
Assay target: human cathepsin B (Homo sapiens, UniProt P07858)
Construct: purchased Calbiochem, Darmstadt, Germany
Measurement protocol: Cathepsin B inhibition assay (chromogenic substrate Cbz-Arg-Arg-pNA)
Assay type: biochemical
Condition context: 20 µM inhibitor, duplicate measurements, product formation after 60 min; read-out: r.a. (%), residual enzymatic activity of cathepsin B

stdin: Find the recorded remaining activity at 20 µM belonging to "CC(C)C[C@H](NC(=O)Oc1ccc(NC(=O)Cc2ccccc2)c(Cl)c1)C(=O)N1CCC[C@H]1C(=O)O" and report it.
stdout: ≤ 2%

stdin: Find the recorded remaining activity at 20 µM belonging to O=C(NC(CC1CCCCC1)C(=O)NC(Cc1ccccc1)C(=O)O)Oc1ccc(Cl)cc1 (stereo not shown) and report it.
stdout: ≤ 2%

stdin: Find the recorded remaining activity at 20 µM belonging to CC(C)CC(NC(=O)Oc1ccc(NC(=O)c2ccc(-c3ccccc3)cc2)c(Cl)c1)C(=O)N1CCCC1C(=O)O (stereo not shown) and report it.
stdout: ≤ 2%

stdin: Find the recorded remaining activity at 20 µM belonging to "CC(C)C[C@H](NC(=O)Oc1ccc(Cl)cc1)C(=O)N1CCC[C@H]1C(=O)O" and report it.
stdout: 4%

Origin of values: paper PMC12304826
